# system: acetylcholine receptor
# assay.explanation: SPR, peptide at 10 uM on immobilized AchR

binder | Binding affinity (RU)
KKNKKR [6mer-2-1054] | 43 RU
KPEWKR [6mer-2-1003] | 42 RU
RFHNKR [6mer-2-1024] | 37 RU
KPEHKR [6mer-2-1066] | 29 RU
RANVKR [6mer-2-1096] | 39 RU
RNTWKK [6mer-2-1019] | 23 RU
KKMFRK [6mer-2-1042] | 36 RU
RIANRK [6mer-2-1065] | 27 RU
